Assay: PSAC antagonists in infected red cells, primary screen, cell-based, P. falciparum Indochina, OD700, 18 h (AID 1157)
Conditions: P. falciparum Indochina infected erythrocytes, osmotic lysis OD700, 18 h; higher = more signal, called active from +8 up or from −8 down

{"compound": "C=CCNC(=O)[C@H]1[C@@H]2C(=O)O[C@@H](c3ccccc3)[C@@H](c3ccccc3)N2[C@@H](c2ccccc2OCCO)[C@]12C(=O)N(C(=O)OCCOC)c1ccc(C#CC3=CCCCC3)cc12", "z-score": 0.725}
{"compound": "CCCC[C@@H]1C[C@H]1[C@@H](NC(=O)c1cccnc1)c1ccc(-c2ccccc2)cc1", "z-score": 0.445}
{"compound": "C[C@H]1ON(c2ccc(C(=O)OC(C)(C)C)cc2)[C@@H](c2ccc(O)cc2)[C@@H]1C(=O)N1C(=O)OC[C@@H]1c1ccccc1", "z-score": 0.428}
{"compound": "Cc1ccc(F)cc1S(=O)(=O)N[C@@H]1CCN(Cc2ccc(OC(C)C)cc2)C1", "z-score": 0.673}
{"compound": "COc1ccccc1CN1C(=O)c2ccccc2[C@@H](C(=O)NC(C)C)[C@@H]1c1ccc(CO)cc1", "z-score": 0.376}
{"compound": "CN(C)C(=O)[C@]1(CCC(=O)OC(C)(C)C)N=C(c2ccc(OCCCO)cc2)O[C@@H]1c1ccccc1", "z-score": 0.84}
{"compound": "CO[C@H]1O[C@H](CO)[C@@H](OC(=O)Nc2ccc(C(F)(F)F)cc2)[C@H](OC(=O)Nc2ccc3c(c2)OCO3)[C@H]1OC(=O)Nc1ccc2c(c1)OCO2", "z-score": 0.619}
{"compound": "CCOC(=O)C[C@H]1[C@H](OC(=O)Cc2ccc3c(c2)OCO3)[C@@H](NC(=O)C2CCCCC2)c2cc(OCCCO)ccc2N1C(=O)c1ccc2ccccc2n1", "z-score": -2.2}
{"compound": "CC(C)(C)OC(=O)CC[C@]1(C(=O)N2CCOCC2)N=C(c2ccc(OCCCO)cc2)O[C@H]1c1ccccc1", "z-score": 0.815}
{"compound": "C=CCN1C(=O)[C@@]2(O[C@@H](CCn3cc([C@H](O)c4ccccc4)nn3)[C@H]([Si](C)(C)c3ccc(OC)cc3)[C@H]2C)c2ccccc21", "z-score": 0.916}
{"compound": "O=C1O[C@@H](c2ccccc2)[C@@H](c2ccccc2)N2[C@@H](c3ccc(O)cc3)[C@]3(C(=O)Nc4ccc(C#CC5=CCCCC5)cc43)[C@@H](C(=O)N3CCN(c4ncccn4)CC3)[C@H]12", "z-score": 0.614}
{"compound": "O=C(CCCCCCC(=O)Nc1ccccc1)N/N=C/c1ccccc1", "z-score": 0.992}
{"compound": "CC(C)(C)OC(=O)CC[C@]1(C(=O)NCCN2CCOCC2)N=C(c2ccc(OCCCO)cc2)O[C@H]1c1ccccc1N=[N+]=[N-]", "z-score": 6.62}
{"compound": "C[C@]1(C(=O)NCCN2CCOCC2)c2ccccc2C(=O)N(Cc2ccc(OC(F)(F)F)cc2)[C@H]1c1ccc(CO)cc1", "z-score": 0.327}
{"compound": "[N-]=[N+]=NCc1ccccc1C[C@@]1(C(=O)NCCN2CCOCC2)N=C(c2ccc(OCCCO)cc2)O[C@@H]1c1ccccc1N=[N+]=[N-]", "z-score": 2.46}
{"compound": "CN1C(=O)[C@@]2(CCS(=O)(=O)c3ccccc3)N=C(c3ccc(OCCCO)cc3)O[C@H]2c2ccccc21", "z-score": 0.914}
{"compound": "COc1ccc(NN2C(C(O)c3ccccn3)C=CC3C(=O)N(C4CCCCC4)C(=O)C32)cc1 (stereo not drawn)", "z-score": 0.536}
{"compound": "CC(C)C[C@@H]1NC(=O)[C@H]2C[C@@H](C(=O)NCCCCCC[N+](C)(C)C)[C@@H](c3cccc(OCCO)c3)N2C1=O", "z-score": 0.251}
{"compound": "CCOC(=O)C[C@H]1[C@H](OC(=O)Cc2ccc3c(c2)OCO3)[C@@H](NC(=O)Cc2ccc(OC)cc2)c2cc(OCCCO)ccc2N1C(=O)c1ccccc1", "z-score": -0.33}
{"compound": "COC(=O)[C@@]1(Cc2ccccc2)[C@H]2c3cc(C(=O)N4CCCC4)n(Cc4ccsc4Br)c3C[C@H]2CN1C(=O)c1ccccc1", "z-score": 1.03}
{"compound": "CC=CC(O)C1C=CC2C(=O)N(C)C(=O)C2N1Nc1ccc([N+](=O)[O-])cc1[N+](=O)[O-] (stereo not drawn)", "z-score": 1.1}
{"compound": "COC(=O)[C@@]1(Cc2ccccc2)[C@H]2c3cc(C(=O)N4CCCC4)n(Cc4cc(F)cc5c4OCOC5)c3C[C@H]2CN1C(=O)c1ccccc1", "z-score": 0.715}
{"compound": "C=CCC(OC(C)=O)[C@@H]1[C@@H](N(Cc2cc3ccccc3o2)C(=O)Cc2ccc(F)cc2)c2cc(OCCCO)ccc2N1C(=O)c1ccc2ccccc2n1 (stereo partly drawn)", "z-score": -0.0096}
{"compound": "CC(=O)N1Cc2ccccc2C[C@]2(N=C(c3ccc(OCCCO)cc3)O[C@@H]2c2ccccc2)C1=O", "z-score": 3.32}
{"compound": "CC(C)N1C(=O)[C@@]2(c3ccc([N+](=O)[O-])cc3)CC(=O)N(C3CCCCC3)[C@@H]2c2ccc(CO)cc21", "z-score": -0.334}
{"compound": "C=C(CCCC)/C(=C/C[C@@H](OC(=O)c1ccncc1)c1cccc(OCCO)c1)c1cnc2ccccc2c1", "z-score": 1.12}
{"compound": "O=C1C[C@@](C(=O)NCC(F)(F)F)(c2ccc([N+](=O)[O-])cc2)[C@@H](c2ccc(CO)cc2)N1C1CCCCC1", "z-score": -0.0879}
{"compound": "CCCNC(=O)[C@@]1(c2ccc([N+](=O)[O-])cc2)CC(=O)N(C2CCCCC2)[C@@H]1c1ccc(CO)cc1I", "z-score": 0.722}
